B1: S. cerevisiae Abp1 (full length; SH3 domain 535-592 mutated) / Hua2 (parent)
chain 1: MALEPIDYTTHSREIDAEYLKIVRGSDPDTTWLIISPNAKKEYEPESTGSSFHDFLQLFDETKVQYGLARVSPPGSDVEKIIIIGWCPDSAPLKTRASFAANFAAVANNLFKGYHVQVTARDEDDLDENELLMKISNAAGARYSIQTSSKQQGKASTPPVKKSFTPSKSPAPVSKKEPVKTPSPAPAAKISSRVNDNNDDDDWNEPELKERDFDQAPLKPNQSSYKPIGKIDLQKVIAEEKAKEDPRLVQKPTAAGSKIDPSSDIANLKNESKLKRDSEFNSFLGTTKPPSMTESSLKNDDDKVIKGFRNEKSPAQLWAERKAKQNSGNAETKAEAPKPEVPEDEPEGEPDVKDLKSKFEGLAASEKEEEEMENKFAPPPKKSEPTIISPKPFSKPQEPVKAEEAEQPKTDYKKIGNPLPGMHIEADNEEEPEENDDDWDDDEDEAAQPPLPSRNVASGAPVQKEEPEQEEIAPSLPSRNSIPAPKQEEAPEQAPEEEIEEEAEEAAPQLPSRSSAAPPPPPRRATPEKKPKENPWATAEYDYDAAEDNELTFVENDKIINIEFVDDDWWLGELEKDGSKGLFPSNYVSLGN
chain 2: MQQTKFGKMYLDHDSVVEYSEDEIVEADRITLGYKKRLSMIENQMRHLLEDFSLDVQQIEPILADLQKYYDAFLQLLQKRNKSLQCKRSTHQPVPSPMNSQTSTNAKVNLSGKLMKFQLNSVQKFDEENILRILQNKIEFEHYFQIDKGKKQKVLLLAVYQCLNGPTRLHKVLNIEGIIHNNSIRTILGKQVSSSKWTVFLYDVKLVLLAHRQDVPNLETSKMIVRYGDLFPCALYFKDHTAY

# Variants of: B1
# run_description: DHFR protein-fragment complementation in yeast (Abp1-DHFR F[1,2] x partner-DHFR F[3]), deep mutational scanning, second methotrexate selection vs reference
# cond: with Hua2; S. cerevisiae, DHFR-PCA selection in liquid with methotrexate at 30 C, two 72 h selections (the score uses the second); reference = the pre-selection culture; not an affinity; value at the no-binding floor (a bound); scale: DMS score: mean over two replicates of log2(f_test/f_ref + 0.5)/ln 2, minus the synonymous-codon median
Each item that follows carries a reported screen value.
readout_type: screen value

mutant: chain 1 Y543E
comparison_symbol: <
value: -3.06

mutant: chain 1 L574F
comparison_symbol: =
value: -3.03

mutant: chain 1 F583M
comparison_symbol: <
value: -3.06

mutant: chain 1 F553P
comparison_symbol: <
value: -3.06

mutant: chain 1 S585W
comparison_symbol: =
value: -3.01

mutant: chain 1 E550M
comparison_symbol: <
value: -3.06

mutant: chain 1 P584Q
comparison_symbol: =
value: -3.01

mutant: chain 1 G581Q
comparison_symbol: <
value: -3.06

mutant: chain 1 D567L
comparison_symbol: <
value: -3.06

mutant: chain 1 D577I
comparison_symbol: =
value: -2.99

mutant: chain 1 F553G
comparison_symbol: =
value: -3.04

mutant: chain 1 Y543V
comparison_symbol: <
value: -3.06

mutant: chain 1 D566L
comparison_symbol: <
value: -3.06

mutant: chain 1 E550P
comparison_symbol: <
value: -3.06

mutant: chain 1 W569S
comparison_symbol: =
value: -2.99

mutant: chain 1 Y543L
comparison_symbol: =
value: -3.02

mutant: chain 1 F583R
comparison_symbol: =
value: -3.02

mutant: chain 1 T552L
comparison_symbol: =
value: -3.04

mutant: chain 1 F583A
comparison_symbol: <
value: -3.06

mutant: chain 1 N561F
comparison_symbol: <
value: -3.06

mutant: chain 1 S585D
comparison_symbol: =
value: -3.03

mutant: chain 1 W570V
comparison_symbol: =
value: -3.02
